Tested on: DENV-R2A (Rluc-expressing DENV, serotype 2 strain 16681)
Assay: microbe, parasite or virus in culture
Assay type: cell-based, Dengue virus
Conditions: Dengue virus, Huh7.5, 48 h, read-out: DENV-R2A replication (fold DMSO) Mean, deconvolution screen, singletons, 50 µM, Huh7.5, 2 days postinfection
MEASURE: activity at 50 µM (%)
Answer with a number only, understood to be in %.

Consider the following illustrative entries.
COMPOUND: N#Cc1cccc(O)c1
UNITS: %
activity at 50 µM: 102

COMPOUND: Cc1cccc(N2CCNCC2)n1
UNITS: %
activity at 50 µM: 91

COMPOUND: CCCC(=O)c1cccs1
UNITS: %
activity at 50 µM: 104

COMPOUND: NC(=O)C1CCCNC1 (centres unmarked)
UNITS: %
activity at 50 µM: 95

COMPOUND: O=C(Nc1ccccc1)c1cccnc1 [NPP3C, N-phenylpyridine-3-carboxamide]
UNITS: %
activity at 50 µM: 2.38

COMPOUND: Clc1cccn2nnnc12
UNITS: %
activity at 50 µM: 101

QUERY: Fill in the blank: the reported activity at 50 µM of CC1(C)CC(O)CC(C)(C)N1 is ____.
RESULT: 97

QUERY: Also need CCN1C(=O)CCCc2ccccc21 [Compound 11N-585S, CCN1C(=O)CCCc2ccccc12] , thanks.
RESULT: 102

---

Test system: DENV-R2A (Rluc-expressing DENV, serotype 2 strain 16681)
Assay: microbe, parasite or virus in culture
Type: cell-based, Dengue virus
Conditions: Dengue virus, Huh7.5, 48 h, read-out: DENV-R2A replication (fold DMSO) Mean, deconvolution screen, singletons, 50 µM, Huh7.5, 2 days postinfection
MEASURE: activity at 50 µM (%)
Answer with a number only, understood to be in %.

MOLECULE: NC(=O)NCc1cccc(Cl)c1
activity at 50 µM (%): 100

MOLECULE: Nc1oncc1-c1ccc(Cl)cc1
activity at 50 µM (%): 57

QUERY: Fill in the blank: the reported activity at 50 µM of CC(=O)c1cc(Br)cs1 [Compound 10X-0139, CC(=O)c1cc(Br)cs1] is ____.
RESULT: 98

QUERY: Also need COc1ccc2cc[nH]c2n1 [SS-4327, COc1ccc2cc[nH]c2n1] , thanks.
RESULT: 98

QUERY: Also need O=C1CCC(c2ccccc2)=NN1 [Compound 7L-571S, O=C1CCC(=NN1)c2ccccc2] , thanks.
RESULT: 107

QUERY: Also need O=C(O)Cc1ccc(O)cc1 , thanks.
RESULT: 97

QUERY: Also need O=C(O)C(O)c1cc(F)cc(F)c1 (stereo not drawn) , thanks.
RESULT: 101

QUERY: Also need COC(=O)[C@H]1CCC(=O)N1 [AS-7023, COC(=O)[C@H]1CCC(=O)N1] , thanks.
RESULT: 102

QUERY: Also need c1ccn(-c2cnccn2)c1 , thanks.
RESULT: 95

QUERY: Also need OCC1(c2ccc(Cl)cc2)CC1 , thanks.
RESULT: 84

QUERY: Also need Oc1ccc2[nH]ccc2c1 [PS-3277, Oc1ccc2[nH]ccc2c1] , thanks.
RESULT: 52

QUERY: Also need OCc1cc2c(cc1Br)OCO2 [Compound 10P-113, OCc1cc2OCOc2cc1Br] , thanks.
RESULT: 86

QUERY: Also need Nc1cncnc1 , thanks.
RESULT: 104

QUERY: Also need O=C(O)[C@@H](O)c1ccc(Br)cc1 [SS-4660, O[C@H](C(=O)O)c1ccc(Br)cc1] , thanks.
RESULT: 104

QUERY: Also need Clc1ncc(CN2CCCCC2)s1 , thanks.
RESULT: 101

QUERY: Also need COc1ncc(Cl)cc1C#N , thanks.
RESULT: 108

QUERY: Also need N[C@H]1CC[C@H](O)CC1 [PS-5466, N[C@@H]1CC[C@@H](O)CC1] , thanks.
RESULT: 96

QUERY: Also need CC(=O)c1ccc2cc(O)ccc2c1 , thanks.
RESULT: 86

QUERY: Also need COc1cc(F)c(C#N)c(F)c1 , thanks.
RESULT: 97

QUERY: Also need OCc1c[nH]c(-c2ccccc2)n1 [CB-0713, OCc1c[nH]c(n1)c2ccccc2] , thanks.
RESULT: 92

Source of measurements: paper PMC9933715
